Source: patent US20250340543A1

Listed here are molecules together with their documented inhibition at 10 µM.
Target: GPR84 (Homo sapiens (Human))
Sequence (Q9NQS5 whole entry): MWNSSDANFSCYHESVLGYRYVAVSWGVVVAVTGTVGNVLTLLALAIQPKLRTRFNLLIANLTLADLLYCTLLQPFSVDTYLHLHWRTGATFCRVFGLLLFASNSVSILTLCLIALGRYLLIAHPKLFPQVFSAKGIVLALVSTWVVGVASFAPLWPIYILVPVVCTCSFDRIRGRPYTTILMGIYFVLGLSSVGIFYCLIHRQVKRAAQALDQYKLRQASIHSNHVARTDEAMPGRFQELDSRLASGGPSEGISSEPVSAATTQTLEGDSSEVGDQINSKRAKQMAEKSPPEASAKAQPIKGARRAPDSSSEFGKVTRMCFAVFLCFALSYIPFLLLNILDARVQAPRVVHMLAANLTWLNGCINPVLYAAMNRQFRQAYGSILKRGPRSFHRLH
Assay: Gai biosensor BRET assay (GPR84-mediated activation of Gai, antagonist mode against agonist ZQ-16)
Assay type: cell-based
Conditions: compound tested at 10 μM (concentration code D)

Use these answered entries as a reference point.
Input: Fill in reported inhibition at 10 µM for this entry: `Cc1cc(OC[C@@H]2CCCOC2)cc(=O)n1[C@H](C)c1ccc(C#CC2CC2)cc1`
Output: > 75%

Input: Fill in reported inhibition at 10 µM for this entry: Cc1cc(OCC2CCOCC2)cc(=O)n1[C@H](C)c1ccc(C#CC2CC2)cc1 (stereo in doubt)
Output: 50 to 75%

Continuing:
Input: Fill in reported inhibition at 10 µM for this entry: Cc1cc(OCc2ncccn2)cc(=O)n1C(C)c1ccc(OCC(F)(F)F)cc1 (stereo not drawn)
Output: < 25%
